- assay: chemical genetic growth profiling, strain panel (AID 1159580);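 further: tested at 20 µM; growth read once vehicle control cultures reached saturation at 30 °C; 1 = growth at the plate median or of vehicle wells; lower values mean less growth of the strain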
- applied_conditions: S. cerevisiae deletion strains, growth OD, locus YPL106C, strain sse1, active compounds read low
About 2,000 (36%) of roughly 5,500 compounds were called active. Another 18% or so got no clear call; they are omitted. Some of the results follow. Where a SMILES comes first, the peptide text is derived from it. Bridges are numbered along the chain shown (N, C = ends). [ ]: non-standard residue; d: D form. The star is where a group is joined. Octanoyl(6-Me) = CCC(C)CCCCC(=O)*; Orn = NCCC[CH](N)C(=O)O; Dab = NCC[CH](N)C(=O)O
Entries and their normalized growth
// return just the number, without any unit appended

Worked examples follow.
COc1ccc2c(=O)ccoc2c1 :: 1.01
CC1(C)C(=O)[C@@H]2C[C@@]3(O)C4=CC(=O)O[C@@H](c5ccoc5)[C@]4(C)CCC3[C@@](C)(C2=O)[C@H]1CC(=O)O (stereo not given in full) :: 1.04
CC(C)CC1NC(=O)C(CCCN)NC(=O)C(C(C)C)NC(=O)C2CCCN2C(=O)C(Cc2ccccc2)NC(=O)C(CC(C)C)NC(=O)C(CCCN)NC(=O)C(C(C)C)NC(=O)C2CCCN2C(=O)C(Cc2ccccc2)NC1=O (stereo not given) (cyclo(FPV[Orn]LFPV[Orn]L); configuration not given here) :: 0.995
C[C@]12CCC(=O)C=C1CCC1C2C(=O)C[C@@]2(C)C1CC[C@]2(O)C(=O)CO (stereo not given in full) :: 0.96

Would you kindly look at the next entry?
Recorded result, CCC(C)CCCCC(=O)NC(CCN)C(=O)NC(C(=O)NC(CCN)C(=O)NC1CCNC(=O)C(C(C)O)NC(=O)C(CCN)NC(=O)C(CCN)NC(=O)C(CC(C)C)NC(=O)C(Cc2ccccc2)NC(=O)C(CCN)NC1=O)C(C)O (stereo not given) ({Octanoyl(6-Me)}-[Dab]T[Dab][Dab][Dab]FL[Dab][Dab]T; lactam 4-C; configuration not given here) , normalized growth: 0.956
